tested on: Mus musculus; experiment: Neurotoxicity in ip dosed CF1 albino mouse after 0.5 hr by rotarod test; format: toxicity, organism-based; conditions: in vivo
Activity listing for selected compounds.
Test Readout: Activity (mg/kg)

Compound | Test Readout | Recorded Result
CC1(C)CC(=O)N(Nc2cccc(Cl)c2)C1=O | Activity | 300
CCC1(CC)CC(=O)N(Nc2ccc(C)cc2)C1=O | Activity | 100
CCCCC1(C)CC(=O)N(Nc2ccc(Cl)cc2)C1=O (stereo unspecified) | Activity | 300
Cc1ccc(NN2C(=O)CC(C)(C)C2=O)cc1 | Activity | 100
CCCC1(C)CC(=O)N(Nc2ccccc2Cl)C1=O (stereo unspecified) | Activity | 300
CCC1(CC)CC(=O)N(Nc2ccc(Cl)cc2)C1=O | Activity | 300

----------
experiment: Lipophilicity, log kw of compound by RP-HPLC; type: physicochemical
Listed compounds paired with reported log K
Test Readout: log K

Compound | Recorded Result
CCC1(CC)CC(=O)N(Nc2ccc(Cl)cc2)C1=O | 2.314
CC1(C)CC(=O)N(Nc2ccc(Cl)cc2Cl)C1=O | 2.179
Cc1ccc(NN2C(=O)C3CCCCC3C2=O)cc1 (stereo not drawn) | 2.028
CCCC1(C)CC(=O)N(Nc2ccc(Br)cc2)C1=O (stereo not drawn) | 2.403
CCCC1(C)CC(=O)N(Nc2ccc(Cl)cc2Cl)C1=O (stereo not drawn) | 2.647
CCC1(C)CC(=O)N(Nc2cccc(Cl)c2)C1=O (stereo not drawn) | 2.183
CC1(C)CC(=O)N(Nc2ccc(Cl)cc2)C1=O | 2.08
Cc1ccc(NN2C(=O)CC(C)(C)C2=O)cc1 | 1.642

Values were extracted from ChEMBL document CHEMBL1157190.
